Listed below: Emax values for each entry.
Biological target: recombinant human PKLR (Homo sapiens)
Construct: His (N); purchased R&D Systems
Sequence (P30613 whole entry): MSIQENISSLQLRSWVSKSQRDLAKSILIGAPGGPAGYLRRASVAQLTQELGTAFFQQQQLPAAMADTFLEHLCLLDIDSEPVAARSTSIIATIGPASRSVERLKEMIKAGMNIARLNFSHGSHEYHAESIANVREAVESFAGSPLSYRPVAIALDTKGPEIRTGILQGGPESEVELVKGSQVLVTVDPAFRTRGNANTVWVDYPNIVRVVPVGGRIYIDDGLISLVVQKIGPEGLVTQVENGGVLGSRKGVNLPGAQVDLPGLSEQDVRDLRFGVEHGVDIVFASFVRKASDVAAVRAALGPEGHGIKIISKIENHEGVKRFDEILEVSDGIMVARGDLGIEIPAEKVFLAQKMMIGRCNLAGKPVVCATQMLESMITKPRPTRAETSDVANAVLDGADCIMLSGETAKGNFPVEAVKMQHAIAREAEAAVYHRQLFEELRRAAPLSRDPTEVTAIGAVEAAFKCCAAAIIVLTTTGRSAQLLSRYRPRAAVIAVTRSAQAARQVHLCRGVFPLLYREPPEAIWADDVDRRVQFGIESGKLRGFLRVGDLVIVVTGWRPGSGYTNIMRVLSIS
Assay: Human PKLR activation assay (Kinase-Glo Plus luminescent detection of generated ATP)
Format: biochemical
Settings: percentage activation normalised to DMSO vehicle (LOW) and 5 μM TEPP-46 (HIGH) controls; read-out: hPKLR Emax (%)
All answers are understood in %, so give the number only.

Some solved cases for reference:
substance_smiles=Cc1cc(F)c(Cn2ncc3cc(S(=O)(=O)c4cn[nH]c4)ccc3c2=O)nc1C study_target="recombinant human PKLR (Homo sapiens)" value_observed=134
substance_smiles=Cc1cccc(Cn2ncc3cc(S(=O)(=O)c4ccccc4)ccc3c2=O)n1 study_target="recombinant human PKLR (Homo sapiens)" value_observed=137
substance_smiles=Cc1ccc(F)c(Cn2ncc3cc(S(=O)(=O)c4cn[nH]c4)ccc3c2=O)n1 study_target="recombinant human PKLR (Homo sapiens)" value_observed=120

As a next step, examine the molecule that follows.
Incoming: Reported Emax for COc1ccc(S(=O)(=O)c2ccc3c(=O)n(Cc4cccn(CCO)c4=O)ncc3c2)cc1 : what is it?
Outgoing: 111

Cited source for all entries: patent US20260152487A1
